Quick reference for GI50 among some compounds
- Test system: SW-620
- protocol: NCI tumour cell line growth inhibition, 48 h
The source made the active and inactive calls. Cut-off read from the data, not from the text of the source: active = GI50 up to about 1.1 µM and inactive = higher.

IN: Missing value: GI50, SW-620, entry "CC1=NN(C(=O)c2ccccc2O)C(=O)/C1=C/c1ccco1" . Fill in?
OUT: 3.3 µM (inactive)

Continuing:
IN: Provide the documented GI50 with SW-620 as the system for "CCOP(=O)(OCC)Oc1c(OC)c2[nH]c(C(=O)OC)cc2c2c(C(=O)O)c[nH]c12"
OUT: > 100 µM (inactive)

IN: SW-620 / GI50 / "O=C(O)c1ccccc1/C=N\N(CCO)C1=NCCN1" : value?
OUT: > 100 µM (inactive)

IN: Request: GI50, test system SW-620, entry C1=C2C3=[N+](CCCC3)CC2Cc2ccsc21 (stereo not given)
OUT: > 100 µM (inactive)

IN: What reported GI50 corresponds to "CC1(C)Cc2cc(C(=O)O)c3c(c2C1=O)COCC3" on SW-620?
OUT: > 100 µM (inactive)

* * *

Entries and their GI50
- System: U-251
- protocol: NCI tumour cell line growth inhibition, 48 h
Active and inactive are the calls of the source. Rule as the data show it: active = GI50 up to about 1.1 µM and inactive = higher.

Solved cases (3 shown):
IN: Bench note: what GI50 did "c1ccc(-c2cc(-c3cc(-c4ccccc4)no3)on2)cc1" show?
OUT: 29.2 µM (inactive)

IN: Any idea what GI50 was measured for "CCCC(=O)c1ccc2c(ccc(=O)n2C)c1" ?
OUT: > 100 µM (inactive)

IN: Which GI50 value is on record for "COC(=O)Nc1nc2cc(NC(=O)c3cccs3)ccc2[nH]1" ?
OUT: 34.2 µM (inactive)

Next:
IN: Fill blank: measured GI50 of the molecule "CN1CCc2c1nc(-c1ccc([N+](=O)[O-])cc1)c1c2N(C)CC1" is ____.
OUT: > 100 µM (inactive)

IN: Any idea what its GI50 is? The molecule is "CN1CCCNCCN(CCc2ccccn2)CCCN(C)CC1"
OUT: > 94.6 µM (inactive)

IN: Dear colleague, I am looking for the recorded GI50 of the following molecule: "Cc1cc2c(=O)n(-c3ccc(F)cc3)c(C)nc2c(C(=O)O)c1C"
OUT: > 100 µM (inactive)

* * *

- System: IGROV-1
- protocol: NCI tumour cell line growth inhibition, 48 h
Activity calls are given as the source filed them. Rule as the data show it: active = GI50 up to about 1.1 µM and inactive = higher.
endpoint_label: GI50

IN: Can you look up the measured GI50 of CCCCCCCCC1=CCC(CN(C)C)C1=O (centres undefined) for me?
OUT: 19.4 µM (inactive)

IN: Which GI50 reading was recorded for the compound "CN1CCCNCCN(CCc2ccccn2)CCCN(C)CC1" ?
OUT: > 100 µM (inactive)

IN: Any idea what its GI50 is? The compound is CC(C)C1=CC(=O)C(C)(C2C(O)CC3(C)C4CC=C5C(CCC(OC6OC(CO)C(O)C(O)C6OC6OC(C)C(O)C(O)C6O)C5(C)C)C4(C)C(=O)CC23C)O1 (centres undefined)
OUT: > 100 µM (inactive)

IN: Could you share which GI50 value was measured for CC1NOC(NS(=O)(=O)c2ccc(/N=N/c3c(O)c(C(=O)O)cc4ccccc34)cc2)C1C (centres undefined) ?
OUT: > 100 µM (inactive)

IN: Look up GI50 for this compound: "COc1cc2ccc1OCc1cccc(n1)COc1ccc(cc1OC)/C=N\c1ccc(cc1)-c1ccc(cc1)/N=C\2"
OUT: > 100 µM (inactive)

IN: I'd like to know its GI50. The compound in question is "COc1cc2c(cc1O)[C@]1(Cc3ccc4c(c3C1=O)OCO4)N(C)CC2"
OUT: > 100 µM (inactive)

IN: Give the measured GI50 of "CCOc1nc(OCC)nc(-c2cccn2-c2ccccc2)n1" .
OUT: 29.6 µM (inactive)

IN: Endpoint output: GI50 of "COC(=O)CCC(=O)Nc1cc(C)ccc1C" . Value?
OUT: > 100 µM (inactive)

IN: Name the recorded GI50 for "c1csc(-c2nn3c(C45CC6CC(CC(C6)C4)C5)nnc3s2)c1" .
OUT: > 100 µM (inactive)

IN: Given the entry "O=C(O)CSc1cc(-c2ccccc2)nc2ccccc12" , report its measured GI50.
OUT: 57.7 µM (inactive)

Next:
IN: Suppose we examine the compound "Cc1ccc(S(=O)(=O)C2=C(C(C)C)N=NC2(C)C)cc1" ; what GI50 value has been reported?
OUT: 91.4 µM (inactive)

IN: Query (compound): "COc1ccccc1C#C/C=C\C#Cc1ccccc1C#N" ; field requested: GI50
OUT: 10.4 µM (inactive)

IN: Quick one: GI50 for "O=C1c2ccccc2-c2ccc(N(Cc3ccc(Br)cc3)Cc3ccc(Br)cc3)cc21" ?
OUT: > 100 µM (inactive)

IN: Would you kindly share the measured GI50 for "CCOP(=O)(OCC)Oc1c(OC)c2[nH]c(C(=O)OC)cc2c2c(C(=O)O)c[nH]c12" ?
OUT: > 100 µM (inactive)

IN: Suppose we examine the compound "Cc1c(C#N)c(=N)oc2ccccc12" ; what GI50 value has been reported?
OUT: > 100 µM (inactive)
